Reference source: the kinase profiling compilation of Christmann-Franck et al. (2016)

# Target: GSK3B (human)
# Experiment notes: radiometric filter-binding kinase assay
# Condition set: compound 0.1 µM
Experimental readout: residual activity (%)

Observe how each entry below is paired with its result.
The compound listed as "Cc1cc(NC(=O)c2cccc(NC(=O)/C=C/CN(C)C)c2)ccc1Nc1nccc(-c2cccnc2)n1" shows residual activity equal to 114

The compound listed as COc1cc(O)c2c(c1)[C@H]1OC1C[C@H](O)[C@H](O)C(=O)/C=C\C[C@H](C)OC2=O (stereo partly drawn) shows residual activity equal to 106

The compound listed as "CNc1nc(-c2ccc3c(N)n[nH]c3c2)cc(N2C[C@@H](C(=O)NC3CCCCC3)CC[C@H]2C)n1" shows residual activity equal to 111

The compound listed as "NC(=O)c1cc(-c2ccnc(NC3CCCCC3)c2)nc(N2CCNCC2)c1" shows residual activity equal to 86

The compound listed as "Cc1cccc(-c2nn(C(=S)Nc3ccccc3)cc2-c2ccnc3ccccc23)n1" shows residual activity equal to 99

(P) CCn1c(-c2nonc2N)nc2cncc(CNC3CCNCC3)c21
(Q) Cc1ccc(-c2ccc3c(ccc4sc5c(c43)NC[C@@H](C)NC5=O)n2)cn1
Request: Field: lower recorded residual activity (choose P or Q ) Let me know the label of the one you choose.
Result: P

----------
# Target: UniProtKB Q9BUB5
# Sequence (Q9BUB5 whole entry, looked up): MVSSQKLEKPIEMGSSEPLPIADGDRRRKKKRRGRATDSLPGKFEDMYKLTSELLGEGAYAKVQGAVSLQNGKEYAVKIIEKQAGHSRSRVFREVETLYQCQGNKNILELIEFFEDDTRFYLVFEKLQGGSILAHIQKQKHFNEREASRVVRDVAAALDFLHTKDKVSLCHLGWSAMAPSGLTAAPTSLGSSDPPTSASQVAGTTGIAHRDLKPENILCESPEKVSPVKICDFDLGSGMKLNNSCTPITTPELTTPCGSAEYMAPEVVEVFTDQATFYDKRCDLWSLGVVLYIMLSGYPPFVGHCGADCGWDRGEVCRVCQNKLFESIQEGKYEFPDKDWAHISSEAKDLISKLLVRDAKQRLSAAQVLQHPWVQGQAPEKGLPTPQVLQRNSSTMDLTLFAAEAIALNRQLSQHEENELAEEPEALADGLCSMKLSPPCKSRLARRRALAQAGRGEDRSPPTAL
# Experiment notes: radiometric filter-binding kinase assay
# Condition set: compound 1.0 µM
Experimental readout: residual activity (%)

Observe how each entry below is paired with its result.
The compound listed as "CCc1cncnc1N1CCN(Cc2nc3cc(C(F)(F)F)ccc3[nH]2)CC1" shows residual activity equal to 91

The compound listed as "COc1cc2ncn(-c3cc(OCc4ccccc4S(C)(=O)=O)c(C#N)s3)c2cc1OC" shows residual activity equal to 47

The compound listed as "O=C(Nc1nc2cc(C(F)(F)F)cc(NC3CC3)n2n1)c1cccnc1" shows residual activity equal to 98

(a) Cn1nc(Nc2ccc(F)cc2)c2c(N)ncnc21
(b) COc1cc(O)c2c(c1)/C=C/C[C@H](O)[C@H](O)C(=O)/C=C\C[C@H](C)OC2=O
Request: Field: lower recorded residual activity (choose a or b ) Let me know the label of the one you choose.
Result: b

----------
# System: AKT1 (human), P31749 [S473D]
# Sequence (P31749 whole entry S473D, looked up): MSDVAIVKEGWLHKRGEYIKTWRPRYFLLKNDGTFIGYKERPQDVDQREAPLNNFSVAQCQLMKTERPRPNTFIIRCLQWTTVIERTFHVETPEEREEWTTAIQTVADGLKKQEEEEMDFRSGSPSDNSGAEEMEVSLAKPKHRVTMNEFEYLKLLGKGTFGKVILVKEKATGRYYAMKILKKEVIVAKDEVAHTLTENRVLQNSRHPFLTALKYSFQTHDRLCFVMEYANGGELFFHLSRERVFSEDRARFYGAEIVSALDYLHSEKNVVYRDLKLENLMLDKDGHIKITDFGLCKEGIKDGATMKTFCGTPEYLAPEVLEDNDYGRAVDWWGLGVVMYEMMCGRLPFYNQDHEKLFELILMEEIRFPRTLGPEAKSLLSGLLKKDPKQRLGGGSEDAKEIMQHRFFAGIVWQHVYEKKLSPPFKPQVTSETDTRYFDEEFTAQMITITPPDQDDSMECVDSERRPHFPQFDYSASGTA
# Experiment notes: radiometric filter-binding kinase assay
# Condition set: compound 0.01 µM
Experimental readout: residual activity (%)

The compound listed as "COc1ccc(N(C(=O)Nc2c(C)cccc2C)c2cc(Nc3ccc(N4CCN(C)CC4)cc3)ncn2)c(OC)c1" shows residual activity equal to 98

The compound listed as CNC(=O)C1[C@H]2O[C@@](C)([C@@H]1N)n1c3ccccc3c3c4c(c5c6ccccc6n2c5c31)C(=O)NC4 (stereo partly drawn) shows residual activity equal to 93

The compound listed as "O=C(Nc1nc2cc(C(F)(F)F)cc(NC3CC3)n2n1)c1cccnc1" shows residual activity equal to 97

----------
// reported residual activity per item
# Target: MAPK15 (human)
# Experiment notes: radiometric filter-binding kinase assay
# Condition set: compound 1.0 µM
Report the figure in % without appending any unit label.

The molecule listed as "O=C(NOC[C@H](O)CO)c1ccc(F)c(F)c1Nc1ccc(I)cc1Cl" shows residual activity equal to 104

The molecule listed as "CN1C(=O)[C@@H](Cc2c[nH]c3ccccc23)NC1=S" shows residual activity equal to 98

The molecule listed as "O=C(O)c1ccc(-c2c[nH]c3ncc(-c4ccccc4)cc23)cc1C1CCCC1" shows residual activity equal to 32

The molecule listed as "Cc1ccc(Sc2cnc(Nc3cccc(Br)n3)s2)cc1C(=O)N1CCN(C(=O)CN)CC1" shows residual activity equal to 1

Now consider a different molecule.
The molecule listed as "Oc1ccc2ccccc2c1SSc1c(O)ccc2ccccc12" shows residual activity equal to 2
